The origin of these recorded values is the RNAGym collection of RNA variant scans (doi:10.7554/elife.80360).

B1: CPEB3 Ribozyme (parent)
chain: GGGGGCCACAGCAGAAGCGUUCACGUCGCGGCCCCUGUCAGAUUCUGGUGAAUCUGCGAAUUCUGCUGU

# Variants of: B1
# METHOD SUMMARY: self-cleavage, relative activity (ratio to wild type); higher = more cleavage; co-transcriptional
MEASURE NAME: self-cleavage
Returns: the value as a bare number; no unit string appended.

INSERT INTO results (change, measure_name, recorded_number) VALUES
  ('A51U G56U', 'self-cleavage', 0.879),
  ('U43C U61G', 'self-cleavage', 0.562),
  ('C6G A23G', 'self-cleavage', 0.164),
  ('A13G G65A', 'self-cleavage', 0.653),
  ('U26G C66U', 'self-cleavage', 0.888),
  ('A13G A52U', 'self-cleavage', 0.989),
  ('G4C C32A', 'self-cleavage', 0.188),
  ('G30A C57A', 'self-cleavage', 0.258),
  ('A10C U46C', 'self-cleavage', 0.98),
  ('U26G G28U', 'self-cleavage', 0.178);

Summary for this variant, U36G A60C : self-cleavage is 0.206
